assay: Induction of NO release in PBS buffer at pH 7.4 incubated for 4 hrs; format: physicochemical; parameters: concentration or dose not given beside the values; conditions: pH 7.4, 4 h
The label depends only on Activity: Satisfied if it is at least 7%, Not satisfied if it is smaller.

>  <COMPOUND_SMILES>
CC(C)[C@H]1CC[C@H](C(=O)N[C@H](Cc2ccccc2)C(=O)OCCO[N+](=O)[O-])CC1

>  <ASSIGNED_CLASS>
Satisfied

$$$$
>  <COMPOUND_SMILES>
CCN(CC)/[N+]([O-])=N\OCOC(=O)[C@@H](Cc1ccccc1)NC(=O)[C@H]1CC[C@H](C(C)C)CC1

>  <ASSIGNED_CLASS>
Not satisfied

$$$$
>  <COMPOUND_SMILES>
CCN(CC)/[N+]([O-])=N/OCOC(=O)c1ccc(CCNC(=O)c2cc(Cl)ccc2OC)cc1

>  <ASSIGNED_CLASS>
Not satisfied

$$$$

// query Answer whether Activity of `COc1ccc(Cl)cc1C(=O)NCCc1ccc(C(=O)OCO/N=[N+](\[O-])N2CCCC2)cc1` is greater than or equal to 7%.
// result Not satisfied
